These entries and their values trace back to patent US12240846B2.

# Tested on: HL60 cells
# experiment.description: HL60 cell proliferation assay (CellTiter-Glo)
# Format: cell-based
# test.parameters: Homo sapiens, HL-60, HL60 cell viability, 72 hours, read-out: Cell Line (IC50, nM) HL60
# Description: K562 and HL60 Cell Proliferation Assay K562 and HL60 cells, cultured in Iscove's Modified Dulbecco's Media (IMDM) supplemented with 10% FBS, were harvested at 50-80% confluency and plated at 2,000 cells per well (K562) or 1,500 cells per well (HL60) in 384-well tissue culture plates. […] Luminescence was measured using an EnSpire plate reader (Perkin Elmer). As noted above, luminescence values from wells with DMSO only or media without cells were used as high and low controls (HC and LC), respectively. […]
metric.name: IC50 (nM)
Please reply with the bare figure in nM and do not write the unit itself.

The examples below pair each entry with its known result.
COc1ncc(C#N)cc1-c1cc2cc(NC(=O)[C@@H]3C[C@@H]3F)ncc2n1C	5280
COc1ncc(F)cc1-c1c(C)c2cnc(NC(=O)[C@@H]3C[C@@H]3F)cc2n1C	4270
COc1cccc(F)c1-c1cc2cc(NC(=O)[C@@H]3C[C@@H]3F)ncc2n1C	761
COc1c(-c2cc3cc(NC(=O)[C@@H]4C[C@@H]4F)ncc3n2C)ccc2[nH]cnc12	800
COc1ccccc1-c1c(C)c2cnc(NC(=O)[C@@H]3C[C@@H]3F)cc2n1C	1200

The molecule identified as COc1c(-c2cc3cc(NC(=O)[C@@H]4C[C@@H]4F)ncc3n2C)ccc2cn[nH]c12 registered its IC50 at 320
